I'd be grateful if you could share measured EC50 for these entries.
- study.system: human RXFP1 (Homo sapiens, UniProt Q9HBX9)
- Construct: expressed in transfected cells
- Sequence (Q9HBX9 1-757): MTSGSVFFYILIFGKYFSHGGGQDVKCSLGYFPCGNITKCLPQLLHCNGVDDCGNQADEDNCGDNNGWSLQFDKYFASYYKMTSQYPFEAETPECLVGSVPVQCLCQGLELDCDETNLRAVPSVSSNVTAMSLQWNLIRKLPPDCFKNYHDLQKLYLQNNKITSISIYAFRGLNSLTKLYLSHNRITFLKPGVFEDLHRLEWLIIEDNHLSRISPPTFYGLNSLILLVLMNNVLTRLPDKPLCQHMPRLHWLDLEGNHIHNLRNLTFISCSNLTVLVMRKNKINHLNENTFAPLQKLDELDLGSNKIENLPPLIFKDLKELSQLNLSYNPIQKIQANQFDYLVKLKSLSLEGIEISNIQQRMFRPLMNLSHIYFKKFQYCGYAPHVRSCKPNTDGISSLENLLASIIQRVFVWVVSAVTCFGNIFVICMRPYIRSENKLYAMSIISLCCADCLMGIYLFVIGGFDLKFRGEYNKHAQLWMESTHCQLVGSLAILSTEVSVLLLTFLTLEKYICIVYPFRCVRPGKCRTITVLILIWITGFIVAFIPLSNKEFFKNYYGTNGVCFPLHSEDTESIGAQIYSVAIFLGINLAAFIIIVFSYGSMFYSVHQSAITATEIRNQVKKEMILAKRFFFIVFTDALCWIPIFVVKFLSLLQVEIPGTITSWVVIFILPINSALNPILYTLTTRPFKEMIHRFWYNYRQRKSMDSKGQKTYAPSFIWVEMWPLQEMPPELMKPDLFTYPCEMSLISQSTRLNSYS
- test.description: RXFP1 cAMP assay (hRXFP1 HEK293 cAMP assay, HTRF)
- Type: cell-based
- condition.parameters: HEK293 cells stably expressing human RXFP1, 30 min at room temperature, read-out: cAMP hRXFP1 HEK293 Assay EC50
Output should be the measured figure followed by the unit it is expressed in.

Recall the reported EC50 of COc1cc(F)c(F)cc1C(=O)N[C@@H]1C2CCC(/C2=C/Br)[C@@H]1C(=O)Nc1ccc(F)c(C(F)(F)F)c1 (some centres unmarked) [Example 11] on human RXFP1 (Homo sapiens, UniProt Q9HBX9) and write it down. 230 nM

Recall the reported EC50 of COc1ccc(C2=NOC(CC(C)(C)O)C2)cc1C(=O)N[C@H]1[C@@H](C(=O)Nc2ccc(F)c(C(F)(F)F)c2)[C@H]2CC[C@@H]1/C2=C\C1CC1 (single isomer, unassigned) [compound 499] on human RXFP1 (Homo sapiens, UniProt Q9HBX9) and write it down. 11 nM

Recall the reported EC50 of COc1ccc(-c2ccc(C(CC(=O)O)C(F)(F)F)cc2F)cc1C(=O)N[C@H]1[C@@H](C(=O)Nc2ccc(F)c(C(F)(F)F)c2)[C@H]2CC[C@@H]1/C2=C\C1CC1 (some centres unmarked) [compound 883] on human RXFP1 (Homo sapiens, UniProt Q9HBX9) and write it down. 2.5 nM

Recall the reported EC50 of COc1cc(F)c(F)cc1C(=O)N[C@@H]1C2CCC(/C2=C/c2cnn(C)c2)[C@@H]1C(=O)Nc1ccc(F)c(C(F)(F)F)c1 (some centres unmarked) [compound 66] on human RXFP1 (Homo sapiens, UniProt Q9HBX9) and write it down. 1700 nM

Recall the reported EC50 of COc1ccc(-c2cc(C(=O)N3CCCC3)ccc2F)cc1C(=O)N[C@@H]1C2CCC(/C2=C/c2cnoc2)[C@@H]1C(=O)Nc1ccc(F)c(C(F)(F)F)c1 (some centres unmarked) [compound 191] on human RXFP1 (Homo sapiens, UniProt Q9HBX9) and write it down. 42 nM

====

- study.system: human RXFP1 (Homo sapiens)
- Construct: expressed in transfected cells
- test.description: RXFP1 cAMP assay (hRXFP1 HEK293 cAMP assay, HTRF)
- Assay type: cell-based
- condition.parameters: HEK293 cells stably expressing human RXFP1, 30 min at room temperature, read-out: cAMP hRXFP1 HEK293 Assay EC50
observable: EC50 (µM)
Field format: number, assumed µM, no unit text.

Annotate the compound COc1ccc(-c2cccc(C(F)(F)F)n2)cc1C(=O)N[C@@H]1C2CCC(/C2=C/C2CC2)[C@@H]1C(=O)Nc1ccc(F)c(C(F)(F)F)c1 (stereo partly drawn) with its measured EC50. 0.069

Annotate the compound COc1ccc(C2=NOC3COCC23)cc1C(=O)N[C@H]1[C@@H](C(=O)N[C@@H](C)C2(C)CC2)[C@H]2CC[C@@H]1/C2=C\C1CC1 (stereo partly drawn) with its measured EC50. 0.13

Annotate the compound COc1ccc(C2=NOC(C(C)(C)O)C2)cc1C(=O)N[C@H]1[C@@H](C(=O)Nc2ccc(F)c(C(F)(F)F)c2)[C@H]2CC[C@@H]1/C2=C\C1CC1 (single isomer, unassigned) [compound 573] with its measured EC50. 0.0674

====

- study.system: human RXFP1 (Homo sapiens, UniProt Q9HBX9)
- Construct: expressed in transfected cells
- test.description: RXFP1 cAMP assay (hRXFP1 HEK293 cAMP assay, HTRF)
- Type: cell-based
- condition.parameters: HEK293 cells stably expressing human RXFP1, 30 min at room temperature, read-out: cAMP hRXFP1 HEK293 Assay EC50
I'd be grateful if you could share measured EC50 for these entries.
Output should be the measured figure followed by the unit it is expressed in.

Annotate the compound COc1ccc(C2CCN(C(=O)C(C)(C)O)C2)cc1C(=O)N[C@@H]1C2CCC(C2=CC2CC2)[C@@H]1C(=O)Nc1ccc(F)c(C(F)(F)F)c1 (stereo partly drawn) [compound 555] with its measured EC50. 0.0414 µM

Annotate the compound COc1ccc(-c2ccc(C(=O)O)cc2)cc1C(=O)N[C@@H]1C2CCC(/C2=C/C2CC2)[C@@H]1C(=O)Nc1ccc(F)c(C(F)(F)F)c1 (stereo partly drawn) [compound 167] with its measured EC50. 0.016 µM

Annotate the compound C=C/C=C1\C2CCC1[C@H](C(=O)Nc1ccc(F)c(C(F)(F)F)c1)[C@@H]2NC(=O)c1cc(-c2cc(C(=O)NS(C)(=O)=O)ccc2F)ccc1OC (stereo partly drawn) [compound 162] with its measured EC50. 0.04 µM

====

- study.system: human RXFP1 (Homo sapiens, UniProt Q9HBX9)
- Construct: expressed in transfected cells
- test.description: RXFP1 cAMP assay (hRXFP1 HEK293 cAMP assay, HTRF)
- Type: cell-based
- condition.parameters: HEK293 cells stably expressing human RXFP1, 30 min at room temperature, read-out: cAMP hRXFP1 HEK293 Assay EC50
The label is MET for EC50 below 0.009 µM and NOT MET for EC50 equal to or exceeding 0.009 µM.

Threshold test, EC50 < 0.009 µM: COc1ccc(C2=NOC3COCC23)cc1C(=O)N[C@H]1[C@@H](C(=O)NCC2(C)COC2)[C@H]2CC[C@@H]1/C2=C\C1CC1 (stereo partly drawn) [compound 675] NOT MET

Threshold test, EC50 < 0.009 µM: COc1ncc(-c2ccc(OC)c(C(=O)N[C@@H]3C4CCC(/C4=C/C4CC4)[C@@H]3C(=O)Nc3ccc(F)c(C(F)(F)F)c3)c2)cn1 (stereo partly drawn) [compound 279] NOT MET

Threshold test, EC50 < 0.009 µM: COc1ccc(C2=NOC(C(=O)OC(C)(C)C)C2)cc1C(=O)N[C@@H]1C2CCC(/C2=C/C2CC2)[C@@H]1C(=O)Nc1ccc(F)c(C(F)(F)F)c1 (stereo partly drawn) [compound 386] NOT MET

Threshold test, EC50 < 0.009 µM: COc1ccc(C2=NOC3CC(F)CC23)cc1C(=O)N[C@H]1[C@@H](C(=O)Nc2ccc(F)c(C(F)(F)F)c2)[C@H]2CC[C@@H]1/C2=C\C1CC1 (stereo partly drawn) [Example 427] NOT MET

Threshold test, EC50 < 0.009 µM: COc1cc(C)c(-c2nnc(CO)s2)cc1C(=O)N[C@H]1[C@@H](C(=O)Nc2ccc(F)c(C(F)(F)F)c2)[C@H]2CC[C@@H]1/C2=C\C1CC1 [compound 808] MET

Threshold test, EC50 < 0.009 µM: COc1ccc(C2=NOC3COCC23)cc1C(=O)N[C@H]1[C@@H](C(=O)Nc2ccc(F)c(OC(F)(F)F)c2)[C@H]2CC[C@@H]1/C2=C\C1CC1 (stereo partly drawn) [compound 761] MET

Threshold test, EC50 < 0.009 µM: O=C(N[C@H]1[C@@H](C(=O)Nc2ccc(F)c(C(F)(F)F)c2)[C@H]2CC[C@@H]1/C2=C\C1CC1)c1cc(C2=NOC3CC(CO)CC23)ccc1OCCCF (stereo partly drawn) [compound 787] MET

Threshold test, EC50 < 0.009 µM: COc1ccc(C2=NOC3CC(C(O)C(F)(F)F)CC23)cc1C(=O)N[C@H]1[C@@H](C(=O)Nc2ccc(F)c(C(F)(F)F)c2)[C@H]2CC[C@@H]1/C2=C\C1CC1 (single isomer, unassigned) [Example 489] MET

Threshold test, EC50 < 0.009 µM: COc1ccc([C@@H]2CO[C@H]3[C@@H]2OC[C@@H]3O)cc1C(=O)N[C@H]1[C@@H](C(=O)Nc2ccc(F)c(C(F)(F)F)c2)[C@H]2CC[C@@H]1/C2=C\C1CC1 [Example 536] NOT MET

Threshold test, EC50 < 0.009 µM: COc1ccc(-c2cccc(C3=NOC4CC(O)CC34)c2)cc1C(=O)N[C@H]1[C@@H](C(=O)Nc2ccc(F)c(C(F)(F)F)c2)[C@H]2CC[C@@H]1/C2=C\C1CC1 (stereo partly drawn) [compound 901] MET

Threshold test, EC50 < 0.009 µM: COc1ccc(C2=NOC(C(N)=O)C2)cc1C(=O)N[C@@H]1C2CCC(/C2=C/C2CC2)[C@@H]1C(=O)Nc1ccc(F)c(C(F)(F)F)c1 (stereo partly drawn) [compound 404] NOT MET

Threshold test, EC50 < 0.009 µM: COc1ccc(C2=NOC3COCC23)cc1C(=O)N[C@H]1[C@@H](C(=O)N[C@H](C)C2CCCC2)[C@H]2CC[C@@H]1/C2=C\C1CC1 (stereo partly drawn) [compound 535] NOT MET

Threshold test, EC50 < 0.009 µM: COc1ccc(C2=NOC3COCC23)cc1C(=O)N[C@H]1[C@@H](C(=O)N[C@H](C)C2(C)CC2(F)F)[C@H]2CC[C@@H]1/C2=C\C1CC1 (stereo partly drawn) [compound 770] MET

Threshold test, EC50 < 0.009 µM: COc1ccc(C2=NOC(C(C)(C)O)C2)cc1C(=O)N[C@H]1[C@@H](C(=O)Nc2ccc(F)c(C(F)(F)F)c2)[C@H]2CC[C@@H]1/C2=C\C1CC1 (single isomer, unassigned) [compound 524] NOT MET

Data credit: patent US20250221966A1
